The reported numbers originate from the Immune Epitope Database (IEDB).

What pKd was measured for each of the following?
- TARGET DESC: HLA-A*23:01
- ASSAY SUMMARY: IEDB peptide-MHC binding, purified MHC/competitive/radioactivity; filed as Kd, often an IC50 or EC50 that approximates it; bounds were set here for any values at or beyond the usual limits of such assays
- ASSAY CONDITIONS: source organism: Dengue virus 1 Brazil/97-11/1997
Numbers only, as −log10 of the molar value.

RVIQLSRKTF ... 5.48

Query sequence follows.
Input: Which pKd is reported for this sequence? LMLLPTALAF
Output: 7.14

###

- TARGET DESC: HLA-A*02:01
- ASSAY SUMMARY: IEDB peptide-MHC binding, purified MHC/direct/fluorescence; filed as Kd, often an IC50 or EC50 that approximates it; bounds were set here for any values at or beyond the usual limits of such assays
- ASSAY CONDITIONS: source organism: Orthohantavirus hantanense
pKd: −log10 of the molar value.
MEASURE NAME: pKd

Input: I would be grateful if you could share the reported pKd for FIYGYLEPV .
Output: ≥ 9.00
